Assay: M. tuberculosis growth inhibition, HTS (AID 449762);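 note: bacterial growth assessed after seven days of incubation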
Conditions: M. tuberculosis H37Rv growth inhibition, 7H9 media; at 25 µM; hits give high values
In all, about 330,000 compounds went through this assay and about 1,900 (0.58%) were called active. Another 4% or so got no clear call; they are omitted. A selection follows. Measured potencies and affinities stand elsewhere.
Measure name: inhibition (%)
State the answer as a number, implicitly in %.

Could you tell me which inhibition is on file for COC(=O)CN(C(=S)Nc1ccc(F)cc1)C1CC(=O)N(c2ccccc2)C1=O (stereo not given) ?
5.39

Same question, O=C(NC1CCN(C(=O)N2c3ccccc3Sc3ccccc32)CC1)c1ccco1 this time
-19.1

Same question, Cc1ccc(S(=O)(=O)N2CCN(C(=O)COC(=O)/C=C/c3ccc(F)cc3)CC2)c(C)c1 this time
-1.22

Same question, CCOc1ccc(NC(=O)CN(C)C(=O)c2cc3c(s2)CCC(C)C3)cc1OCC (stereo not given) this time
1.11

Same question, CCCCCCNC(=O)C(C#N)c1nc2ccccc2nc1N1CCOCC1 (stereo not given) this time
1

Same question, COc1ccc(-c2c[n+]3c(n2-c2ccccc2)CCCCC3)cc1 this time
-4.08

Same question, N#CC(C(=O)NCCc1ccccc1)c1nc2ccccc2nc1N1CCOCC1 (stereo not given) this time
4.18

Same question, Cc1cc2ccccc2c(=O)n1CC(=O)NCC(=O)N1CCN(c2ccccc2)CC1 this time
3.46

Same question, CN1CCCN(C(=O)c2cc(-c3ccc(Cl)c(Cl)c3Cl)nc3ccccc23)CC1 this time
5.52

Same question, C/C(=N\OC(=O)c1c(-c2c(F)cccc2Cl)noc1C)c1nccs1 this time
3.84
